Data provenance: PubChem BioAssay AID1963425

# Tested on: 323965-272-R-J2-PDC complex spheroid growth, % test/control;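 note: compound exposure lasted 7 days starting three days after spheroid seeding; 100% = DMSO vehicle control wells with viability set relative to vehicle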
# assay.method.text: Anticancer human tumor 323965-272-R-J2-PDC patient-derived pancreatic carcinoma cell line growth inhibition [Asc]
# reported.conditions: second compound 0.316 µM; first compound 0.03 µM; active compounds read low
This section presents compounds with their documented viability, T/C values.

| compound | viability, T/C (%) |
| --- | --- |
| CCN1C(C(=O)NC23CCC(C(=O)O)(CC2)CC3)C(c2cccc(Cl)c2F)C2(C(=O)Nc3cc(Cl)ccc32)C12CCCCC2 (stereo not drawn) + CNC(C)C(=O)NC1CN(S(=O)(=O)c2cccc(S(=O)(=O)N3CCC4CCC(C(=O)NC(c5ccccc5)c5ccccc5)N4C(=O)C(NC(=O)C(C)NC)C3)c2)CCC2CCC(C(=O)NC(c3ccccc3)c3ccccc3)N2C1=O | 81.6 |
| NC(=O)C(=Cn1cnc(-c2cc(C(F)(F)F)cc(C(F)(F)F)c2)n1)c1cncnc1 + Cc1c(S(C)(=O)=O)c(-c2cc(F)cc(N3CCN(c4ccc(NS(=O)(=O)c5ccc(NC(CCN6CCC(C(=O)OCCCP(=O)(O)O)CC6)CSc6ccccc6)c(S(=O)(=O)C(F)(F)F)c5)cc4)CC3)c2)c(-c2ccc(Cl)cc2)n1C(C)C | 84.9 |
| Cc1nc(N2CCC3(CC2)COC(C)C3N)c(CO)nc1Sc1ccnc(N)c1Cl (stereo not drawn) + Cc1c(S(C)(=O)=O)c(-c2cc(F)cc(N3CCN(c4ccc(NS(=O)(=O)c5ccc(NC(CCN6CCC(C(=O)OCCCP(=O)(O)O)CC6)CSc6ccccc6)c(S(=O)(=O)C(F)(F)F)c5)cc4)CC3)c2)c(-c2ccc(Cl)cc2)n1C(C)C | 87.2 |
